Quick reference for pEC50 among some binders
- TARGET_DESC: T1, human CCR8 (human, UniProt P51685 1-355)
- T1 construct: whole, on cells; construct used for the overexpressing cell lines is not described; also called hCCR8
- ASSAY_COMMENT: FACS, HEK293-hCCR8 cells
Scale for pEC50: -log10 of concentration given in mol/L; no unit attached.

Examples with their reported pEC50 follow.
BINDER	pEC50
PR004130 (antibody, human IgG1, kappa, V domains shown, chimeric, human IgG1 constant region) VH: EVQLVESGGGLVQFKGSLKLSCGTSGFTFNTYAMNWVRQAPGKGLEWVARIRSKSNNYATFYADSVKDRFTISRDDSQNMLYLQMNNLKTEDTAMYYCVRGKENGNYYAMDFWGQGTSVTVSS VL: DIVMTQAAPSVPVTPGESVSISCRSSKSLLHSNGNTYLYWFLQRPGQSPQLLIYRMSNLASGVPDRFSGSGSGTAFTLRISRVEAEDVGVYYCMQHLEYPFTFGSGTKLEIKR	9.10
PR004124 (antibody, human IgG1, kappa, V domains shown, chimeric, human IgG1 constant region) VH: EVKVEESGGGLVQPGGSMKLSCAASGFTFNTYAMNWVRQAPGKGLEWVARIRSKSNNYATYYADSVKDRFTISRDDSQSMLYLQMNNLKTEDTAMYYCVRGKDYGNYYAMDFWGQGTSLTVSS VL: DIVMTQDELSNPVTSGESVSISCRSSKSLLHSNGNTYLYWFLQRPGQSPQLLIYRMSNLASGVPDRFSGSGSGTAFTLRISRVEAEDVGVYYCMQHLEYPFTFGGGTKLELKR	9.24

API: the following record is the query input.
Which pEC50 reading was recorded for the binder PR004126 (antibody, human IgG1, kappa, V domains shown, chimeric, human IgG1 constant region) VH: EVQLVESGGGLVQPKGSLKLSCAASGFTFSTNAMNWVRQAPGKGLEWVGRIRSKSNNYATYYADSVKDRFTISRDDSQSMLYLQMNNLKTEDTAMYYCVRGKENGNYYAMDFWGQGTSVTVSA VL: DIVITQAAPSVPVTPGESVSISCRSSKSLLHSNGNTYLYWFLQRPGQSPQLLIYRMSNLASGVPDRFSGSGSGTAFTLRISRVEAEDVGVYYCMQHLEYPFTFGAGTKLELKR ? 9.24
